molecular target: Gal(b1-4)GlcNAc(b1-3)Gal(b1-3)GalNAc; assay: glycan array binding signal (z-score within array); higher = stronger binding; conditions: glycan notation: IUPAC condensed, linker removed
The sample as a whole holds a higher share of the strongest signals than the screen did.
readoutLabel: glycan array binding signal (z-score)
Answers are plain numbers.

Hello, I would appreciate it if you could give glycan array binding signal (z-score) for each entry below.
1. MpAFP NterminalRI GFP (Marinomonas primoryensis) (protein) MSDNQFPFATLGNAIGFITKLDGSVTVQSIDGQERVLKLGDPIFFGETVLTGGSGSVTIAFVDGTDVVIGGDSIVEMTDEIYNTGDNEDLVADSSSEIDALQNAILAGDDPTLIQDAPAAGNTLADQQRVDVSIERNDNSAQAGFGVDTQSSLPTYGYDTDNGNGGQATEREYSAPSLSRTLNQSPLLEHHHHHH
2. Arath Fbox (Arabidopsis thaliana), NP_178341.1 (protein) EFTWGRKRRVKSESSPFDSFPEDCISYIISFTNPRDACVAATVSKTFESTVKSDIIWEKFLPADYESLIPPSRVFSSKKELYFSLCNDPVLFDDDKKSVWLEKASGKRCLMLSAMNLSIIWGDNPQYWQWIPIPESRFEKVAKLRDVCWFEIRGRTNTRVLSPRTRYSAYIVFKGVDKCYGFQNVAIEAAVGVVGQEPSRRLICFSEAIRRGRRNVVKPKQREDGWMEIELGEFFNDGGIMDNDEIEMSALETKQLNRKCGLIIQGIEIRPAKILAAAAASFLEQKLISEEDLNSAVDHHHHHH

1. -0.412
2. -0.431
